Can you tell me FOB for the items I'm about to list?
assay-target: T1, human IL-12RB2 with C-terminal HA tag, transiently expressed on HEK-293T cells (human, UniProt Q99665 24-862)
T1 construct: whole, on cells; also called human IL-12Rβ2
T1 sequence (looked up): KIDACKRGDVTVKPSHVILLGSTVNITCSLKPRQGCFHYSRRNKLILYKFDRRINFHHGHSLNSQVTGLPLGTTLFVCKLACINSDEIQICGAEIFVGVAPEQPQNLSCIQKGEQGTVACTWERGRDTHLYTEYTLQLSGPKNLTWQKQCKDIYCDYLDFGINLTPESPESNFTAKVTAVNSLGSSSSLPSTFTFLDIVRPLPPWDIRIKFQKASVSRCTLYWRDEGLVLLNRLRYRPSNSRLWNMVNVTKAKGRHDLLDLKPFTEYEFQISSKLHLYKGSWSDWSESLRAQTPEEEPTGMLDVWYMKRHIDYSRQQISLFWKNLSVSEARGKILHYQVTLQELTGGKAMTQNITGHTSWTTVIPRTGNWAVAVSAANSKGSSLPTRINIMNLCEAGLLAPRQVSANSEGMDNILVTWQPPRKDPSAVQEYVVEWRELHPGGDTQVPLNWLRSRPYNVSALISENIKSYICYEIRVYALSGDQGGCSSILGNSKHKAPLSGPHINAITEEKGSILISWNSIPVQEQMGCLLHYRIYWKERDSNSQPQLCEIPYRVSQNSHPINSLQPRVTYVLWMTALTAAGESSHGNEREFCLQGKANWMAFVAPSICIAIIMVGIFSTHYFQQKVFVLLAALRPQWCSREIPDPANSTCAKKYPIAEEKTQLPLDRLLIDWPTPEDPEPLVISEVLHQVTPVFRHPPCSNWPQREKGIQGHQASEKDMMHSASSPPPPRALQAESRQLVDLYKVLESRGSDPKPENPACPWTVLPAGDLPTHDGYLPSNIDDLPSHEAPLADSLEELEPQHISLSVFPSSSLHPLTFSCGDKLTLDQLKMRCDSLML
assay-text: FACS, periplasmic extract, HEK-293T
Answer as a quantity: numeral, then unit.

{"binder": "VHH294B2 (VHH) VHH: QLQLVESGGGLVQAGGSLRLSCAASGLTFSGYTVGWFRQAPGKEREFVAAINWSSAYTYSEFVKGRFTISRDNAKNTVYLQMSSLKPEDTAVYYCAAQRSRTSWYASTAEAYDYWGQGTQVTVSS", "FOB": "1.98 fold"}

Output measured FOB for this item: VHH67B2 (VHH) VHH: QVQLVESGGGLVQPGGSLRLSCAASGFTFSNYAMSWIRQGPERGFEWVSRINSGGGTTSYADSVKGRFTISRDNAKNTLYLQMNSLKPEDTAVYYCAKHSHPDYSSNYYRPGQGTQVTVSS
1.73 fold

These measurements were taken from patent US20250019450A1.
